molecular target: FAP Human Plasma (Homo sapiens (Human), UniProt Q12884); experiment: FAP plasma inhibition assay, human plasma; conditions: human plasma dilution 1:40, Ala-Pro-AMC 75 μM; n = 1
Sequence (Q12884 24-760 limits assumed): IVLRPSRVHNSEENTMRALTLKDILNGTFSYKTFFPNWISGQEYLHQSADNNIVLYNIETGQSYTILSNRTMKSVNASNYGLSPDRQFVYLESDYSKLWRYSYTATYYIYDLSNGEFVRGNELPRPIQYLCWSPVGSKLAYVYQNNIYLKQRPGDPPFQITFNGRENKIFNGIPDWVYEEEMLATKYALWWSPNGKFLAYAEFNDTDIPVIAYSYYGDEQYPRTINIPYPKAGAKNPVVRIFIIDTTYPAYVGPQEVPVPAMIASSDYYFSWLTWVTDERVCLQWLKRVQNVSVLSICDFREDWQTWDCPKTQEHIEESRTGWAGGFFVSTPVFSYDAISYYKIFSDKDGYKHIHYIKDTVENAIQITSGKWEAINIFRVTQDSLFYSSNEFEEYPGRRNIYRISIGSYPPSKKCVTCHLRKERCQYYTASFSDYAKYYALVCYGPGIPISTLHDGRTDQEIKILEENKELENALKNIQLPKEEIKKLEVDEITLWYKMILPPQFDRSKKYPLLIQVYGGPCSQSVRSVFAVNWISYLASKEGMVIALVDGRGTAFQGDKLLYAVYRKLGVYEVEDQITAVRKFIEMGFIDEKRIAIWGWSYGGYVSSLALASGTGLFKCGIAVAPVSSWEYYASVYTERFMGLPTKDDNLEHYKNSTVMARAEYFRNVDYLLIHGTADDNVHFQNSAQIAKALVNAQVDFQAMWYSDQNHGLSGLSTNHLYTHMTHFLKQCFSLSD
pIC50: −log10 of the molar value.
quantity: pIC50

Here is how some compounds turned out for pIC50.
N#C[C@@H]1C[C@@H]2C[C@@H]2N1C(=O)CNC(=O)c1ccnc2cc(C3(C#N)CC3)ccc12
8.39
N#C[C@@H]1C[C@@H]2C[C@@H]2N1C(=O)CNC(=O)c1ccnc2cc(Br)ccc12
7.82
N#C[C@@H]1C[C@@H]2C[C@@H]2N1C(=O)CNC(=O)c1ccnc2cc(Cl)ccc12
7.89

1. COc1ccc2c(C(=O)NCC(=O)N3[C@H](C#N)C[C@@H]4C[C@@H]43)cc(C)nc2c1
2. N#C[C@@H]1C[C@@H]2C[C@@H]2N1C(=O)CNC(=O)c1ccnc2ccc(Br)cc12
// query Recorded pIC50 values differ for 1 and 2 ; which one is higher? The response must carry the label of the picked entry.
// result 2
(2: 7.64, 1: 6.42)

I. Cc1ccc2c(C(=O)NCC(=O)N3[C@H](C#N)C[C@@H]4C[C@@H]43)ccnc2c1
II. Cc1ccc2c(C(=O)NCC(=O)N3[C@H](C#N)C[C@@H]4C[C@@H]43)cc(C)nc2c1
III. N#C[C@@H]1C[C@@H]2C[C@@H]2N1C(=O)CNC(=O)c1ccnc2cc(C(F)(F)F)ccc12
IV. Cc1ccc2nccc(C(=O)NCC(=O)N3[C@H](C#N)C[C@@H]4C[C@@H]43)c2c1
V. N#C[C@@H]1C[C@@H]2C[C@@H]2N1C(=O)CNC(=O)c1ccnc2ccc(C(F)(F)F)cc12
// query Could you please sort these 5 entries by pIC50 from high to low? Labels, requested order.
// result I, III, IV, V, II
(I: 8.80, III: 8.44, IV: 8.12, V: 7.47, II: 6.49)

----------
system: Rat Hepatocytes (rHep); experiment: Metabolic stability in rat hepatocytes (rHep); type: in vitro ADME
quantity: rHeps CLint (μL/min/1E6)

N#C[C@@H]1C[C@@H]2C[C@@H]2N1C(=O)CNC(=O)c1ccnc2ccc(OCC(F)(F)F)cc12
9.8
Cc1cc(C(=O)NCC(=O)N2[C@H](C#N)C[C@@H]3C[C@@H]32)c2cc(Cl)ccc2n1
2.8
CCOC1(c2ccc3nccc(C(=O)NCC(=O)N4[C@H](C#N)C[C@@H]5C[C@@H]54)c3c2)CC1
40
N#C[C@@H]1C[C@@H]2C[C@@H]2N1C(=O)CNC(=O)c1ccnc2cc(CF)ccc12
2.7
Cc1cc(C(=O)NCC(=O)N2[C@H](C#N)C[C@@H]3C[C@@H]32)c2cc(I)ccc2n1
12
COC(C)(C)c1ccc2nccc(C(=O)NCC(=O)N3[C@H](C#N)C[C@@H]4C[C@@H]43)c2c1
21

I. N#C[C@@H]1C[C@@H]2C[C@@H]2N1C(=O)CNC(=O)c1ccnc2ccc(Br)cc12
II. N#C[C@@H]1C[C@@H]2C[C@@H]2N1C(=O)CNC(=O)c1ccnc2ccc(OC3CCC(F)(F)CC3)cc12
// query Would you let me know which has the greater rHeps CLint value, I or II ? Refer to your chosen entry by its label in the reply.
// result II
(II: 55 μL/min/1E6, I: 3.8 μL/min/1E6)

----------
system: Human Hepatocytes (hHep); assay: Metabolic stability in human hepatocytes (hHep); format: in vitro ADME
quantity: hHep CLint

Solved cases (6 shown):
N#C[C@@H]1C[C@@H]2C[C@@H]2N1C(=O)CNC(=O)c1ccnc2ccc(C(F)(F)F)cc12
7 μL/min/1E6
N#C[C@@H]1C[C@@H]2C[C@@H]2N1C(=O)CNC(=O)c1ccnc2ccc(C3(C#N)CC3)cc12
<1 μL/min/1E6
N#C[C@@H]1C[C@@H]2C[C@@H]2N1C(=O)CNC(=O)c1ccnc2cc(C3CC3)ccc12
2.3 μL/min/1E6
Cc1cc(C(=O)NCC(=O)N2[C@H](C#N)C[C@@H]3C[C@@H]32)c2ccc(F)cc2n1
<1 μL/min/1E6
CC(C)(O)c1ccc2nccc(C(=O)NCC(=O)N3[C@H](C#N)C[C@@H]4C[C@@H]43)c2c1
<1 μL/min/1E6
N#C[C@@H]1C[C@@H]2C[C@@H]2N1C(=O)CNC(=O)c1ccnc2cc(C(F)F)ccc12
<1 μL/min/1E6

Proceed to the following item.
Record Cc1cc(C(=O)NCC(=O)N2[C@H](C#N)C[C@@H]3C[C@@H]32)c2cc(F)ccc2n1 , field hHep CLint: <1 μL/min/1E6

----------
assay: Caco-2 bidirectional (ABBA) permeability; type: in vitro ADME; conditions: human, A to B, read-out: Caco2 Bidirectional (ABBA) A to B Papp
quantity: Papp A→B (×10⁻⁶ cm/s)

Cc1ccc2c(C(=O)NCC(=O)N3[C@H](C#N)C[C@@H]4C[C@@H]43)ccnc2c1
24

I. N#C[C@@H]1C[C@@H]2C[C@@H]2N1C(=O)CNC(=O)c1ccnc2cc(C3CC3)ccc12
II. N#C[C@@H]1C[C@@H]2C[C@@H]2N1C(=O)CNC(=O)c1ccnc2cc(C3(C#N)CC3)ccc12
// query Between the entries labelled I and II , which has a larger Papp A→B value on record? Bench note: the answer is the label of the chosen record.
// result I
(I: 18 ×10⁻⁶ cm/s, II: 2.8 ×10⁻⁶ cm/s)

----------
assay: Kinetic solubility; format: physicochemical; settings: kinetic from dmso stock
quantity: solubility (µM)

CC(OC(F)(F)F)c1ccc2c(C(=O)NCC(=O)N3[C@H](C#N)C[C@@H]4C[C@@H]43)ccnc2c1 (stereo partly drawn)
200
N#C[C@@H]1C[C@@H]2C[C@@H]2N1C(=O)CNC(=O)c1ccnc2ccc(Br)cc12
290
Cc1cc(C(=O)NCC(=O)N2[C@H](C#N)C[C@@H]3C[C@@H]32)c2cc(Br)ccc2n1
61
CC1(c2ccc3c(C(=O)NCC(=O)N4[C@H](C#N)C[C@@H]5C[C@@H]54)ccnc3c2)CC1
37
N#C[C@@H]1C[C@@H]2C[C@@H]2N1C(=O)CNC(=O)c1ccnc2cc(Br)ccc12
210

1. CCc1ccc2nc(C)cc(C(=O)NCC(=O)N3[C@H](C#N)C[C@@H]4C[C@@H]43)c2c1
2. N#C[C@@H]1C[C@@H]2C[C@@H]2N1C(=O)CNC(=O)c1ccnc2ccc(C3(C#N)CC3)cc12
// query So which one has the bigger solubility here, 1 or 2 ? // caller expects the label of the chosen entry
// result 1
(1: 800 µM, 2: 110 µM)

----------
experiment: Caco-2 AB intrinsic permeability; format: in vitro ADME; settings: human, A to B, read-out: Caco2 AB Intrinsic Papp
quantity: Papp (nm/s)

Cc1ccc2c(C(=O)NCC(=O)N3[C@H](C#N)C[C@@H]4C[C@@H]43)ccnc2c1
600

I. Cc1ccc2c(C(=O)NCC(=O)N3[C@H](C#N)C[C@@H]4C[C@@H]43)cc(C)nc2c1
II. N#C[C@@H]1C[C@@H]2C[C@@H]2N1C(=O)CNC(=O)c1ccnc2cc(C3CC3)ccc12
III. N#C[C@@H]1C[C@@H]2C[C@@H]2N1C(=O)CNC(=O)c1ccnc2cc(C3(C#N)CC3)ccc12
// query Please list these in order of increasing Papp. Thank you! Give the order by naming the labels one after another as requested.
// result III, II, I
(III: 93 nm/s, II: 290 nm/s, I: 560 nm/s)

----------
pIC50: −log10 of the molar value.
Here's a batch of molecules along with measured pIC50 for Prolyl Oligopeptidase (hPREP) (Homo sapiens (Human)).

Field: example entries. Status: answers known.
Cc1cc(C(=O)NCC(=O)N2[C@H](C#N)C[C@@H]3C[C@@H]32)c2cc(I)ccc2n1 [Example 7]
4.74
CC(C)(O)c1ccc2nccc(C(=O)NCC(=O)N3[C@H](C#N)C[C@@H]4C[C@@H]43)c2c1 [Example 13]
< 4.30
N#C[C@@H]1CSCN1C(=O)CNC(=O)c1ccnc2ccccc12 [Reference Compound C, reference compound]
8.15
CC1(c2ccc3c(C(=O)NCC(=O)N4[C@H](C#N)C[C@@H]5C[C@@H]54)ccnc3c2)CC1 [Example 32]
< 4.30
N#C[C@@H]1C[C@@H]2C[C@@H]2N1C(=O)CNC(=O)c1ccnc2cc(C3(C(F)(F)F)CC3)ccc12 [Example 36]
< 4.30
N#C[C@@H]1C[C@@H]2C[C@@H]2N1C(=O)CNC(=O)c1ccnc2ccc(C3(C#N)CC3)cc12 [Example 46]
< 4.30

Kindly consider the entry below.
Prolyl Oligopeptidase (hPREP) (Homo sapiens (Human)) pIC50 of COC(C)c1ccc2nccc(C(=O)NCC(=O)N3[C@H](C#N)C[C@@H]4C[C@@H]43)c2c1 (stereo partly shown) [Example 15] is < 4.30

Where do the numbers come from? From patent US20230406840A1.
